Catalogue of log10 of koff readings, one per entry.
experimentalSystem: T1, SARS-CoV2 Spike ecto foldon Trimer expressed with a C-terminal myc-myc-hexahistidine (SARS-CoV-2, UniProt P0DTC2 14-1213)
T1 construct: extracellular domain
procedureSummary: SPR Biacore, mAb captured by anti-hFc, 37C
Heads up: the numbers are on a log10 scale; they represent koff in s⁻¹.

mAb15164 (antibody, V domains shown) VH: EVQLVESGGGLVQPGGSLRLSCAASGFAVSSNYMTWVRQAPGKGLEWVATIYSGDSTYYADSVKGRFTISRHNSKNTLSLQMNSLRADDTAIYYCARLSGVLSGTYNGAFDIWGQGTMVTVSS VL: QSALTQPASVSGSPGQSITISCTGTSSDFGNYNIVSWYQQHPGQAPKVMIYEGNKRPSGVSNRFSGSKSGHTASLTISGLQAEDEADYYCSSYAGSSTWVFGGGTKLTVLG = -3.86
mAb15159 (antibody, V domains shown) VH: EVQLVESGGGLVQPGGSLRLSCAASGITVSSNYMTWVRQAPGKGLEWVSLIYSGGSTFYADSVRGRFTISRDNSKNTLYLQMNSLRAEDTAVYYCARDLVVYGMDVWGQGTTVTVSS VL: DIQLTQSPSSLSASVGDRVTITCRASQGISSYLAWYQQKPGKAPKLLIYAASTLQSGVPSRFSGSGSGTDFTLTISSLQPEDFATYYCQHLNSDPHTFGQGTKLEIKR = -4.49
mAb15160 (antibody, V domains shown) VH: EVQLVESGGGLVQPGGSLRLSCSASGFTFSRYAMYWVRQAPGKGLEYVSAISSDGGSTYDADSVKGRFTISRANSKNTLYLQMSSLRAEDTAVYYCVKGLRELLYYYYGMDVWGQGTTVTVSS VL: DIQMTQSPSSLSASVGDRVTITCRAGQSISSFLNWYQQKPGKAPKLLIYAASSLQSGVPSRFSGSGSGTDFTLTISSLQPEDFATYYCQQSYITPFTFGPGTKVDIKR = -3.78
mAb15170 (antibody, V domains shown) VH: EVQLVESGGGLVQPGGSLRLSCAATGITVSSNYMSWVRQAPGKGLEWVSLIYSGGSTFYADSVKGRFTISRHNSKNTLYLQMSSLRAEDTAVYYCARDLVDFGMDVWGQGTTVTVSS VL: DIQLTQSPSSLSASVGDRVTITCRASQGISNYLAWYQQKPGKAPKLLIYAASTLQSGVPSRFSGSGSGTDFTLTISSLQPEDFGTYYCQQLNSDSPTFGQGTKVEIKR = -5.00

// sample mAb14258 (antibody, V domains shown) VH: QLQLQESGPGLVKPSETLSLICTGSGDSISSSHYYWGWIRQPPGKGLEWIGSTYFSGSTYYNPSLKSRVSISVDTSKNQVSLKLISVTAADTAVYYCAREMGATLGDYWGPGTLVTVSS VL: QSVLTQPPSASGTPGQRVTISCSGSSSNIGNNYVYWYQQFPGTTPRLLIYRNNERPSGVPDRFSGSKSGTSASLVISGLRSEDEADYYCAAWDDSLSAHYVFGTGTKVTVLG , its log10 of koff was -4.10
